observation.type: melting point

Example molecules with recorded melting point:
CCCCOCCOc1ccc(-c2ccc3c(c2)C=C(C(=O)Nc2ccc(CN(C)C4CCOCC4)cc2)CCN3c2cnc(C)o2)cc1 : 125 to 128 °C
CCCCOCCOc1ccc(-c2ccc3c(c2)C=C(C(=O)Nc2ccc(CN(C)C4CCOCC4)cc2)CCN3C2CC2)cc1 : 117 to 120 °C
CCCCOCCOc1ccc(-c2ccc3c(c2)C=C(C(=O)Nc2ccc(CN(C)C4CCOCC4)cc2)CCN3CCCOC)cc1 : 87 to 90 °C
CCCOCCOc1ccc(-c2ccc3c(c2)C=C(C(=O)Nc2ccc(CN(C)C4CCOCC4)cc2)CCN3CCC)cc1 : 128 to 130 °C
CCCOCCOc1ccc(-c2ccc3c(c2)C=C(C(=O)Nc2ccc(CN(C)C4CCOCC4)cc2)CCN3Cc2cccc(OC)c2)cc1 : 113 to 114 °C
CCCOCCOc1ccc(-c2ccc3c(c2)C=C(C(=O)Nc2ccc(CN(C)C4CCOCC4)cc2)CCN3Cc2ccoc2)cc1 : 115 to 116 °C
CCCOCCOc1ccc(-c2ccc3c(c2)C=C(C(=O)Nc2ccc(CN(C)C4CCOCC4)cc2)CCN3C(=O)CC)cc1 : 167 to 169 °C
CCOCCCOc1ccc(-c2ccc3c(c2)C=C(C(=O)Nc2ccc(CN(C)C4CCOCC4)cc2)CCN3S(C)(=O)=O)cc1 : 157 to 160 °C

*Q* Need melting point, item CCCOCCOc1ccc(-c2ccc3c(c2)C=C(C(=O)Nc2ccc(CN(C)C4CCOCC4)cc2)CCN3Cc2ccsc2)cc1
*A* 131.5 to 132.5 °C

*Q* // returns reported melting point for input C=CCN1CCC(C(=O)Nc2ccc(CN(C)C3CCOCC3)cc2)=Cc2cc(-c3ccc(OCCOCCC)cc3)ccc21
*A* 110 to 111 °C

*Q* Please look up its melting point: C=CCN1CCC(C(=O)Nc2ccc(CN(C)C3CCOCC3)cc2)=Cc2cc(-c3ccc(OCCOCCCC)cc3)ccc21
*A* 103 to 104 °C

*Q* // query melting point value for entry CCCOCCOc1ccc(-c2ccc3c(c2)C=C(C(=O)Nc2ccc(CN(C)C4CCOCC4)cc2)CCN3c2ccccc2)cc1.Cl
*A* 223 to 224 °C

----------
Each entry below carries its reported melting point.

CCCCOCCOc1ccc(-c2ccc3c(c2)C=C(C(=O)Nc2ccc(CN(C)C4CCOCC4)cc2)CCN3CCC)cc1 [Compound 27] : 122 to 124 °C
CN1CCC(C(=O)Nc2ccc(CN(C)C3CCOCC3)cc2)=Cc2cc(-c3ccc4c(c3)OCCO4)ccc21 [Compound 24] : 164 to 165 °C
CCCOCCOc1ccc(-c2ccc3c(c2)C=C(C(=O)Nc2ccc(CN(C)C4CCOCC4)cc2)CCN3Cc2ccccc2OC)cc1 [Compound 51] : 118 to 119 °C

*Q* Which melting point value belongs to CCCCOCCOc1ccc(-c2ccc3c(c2)C=C(C(=O)Nc2ccc(CN(C)C4CCOCC4)cc2)CCN3Cc2cccc(OC)c2)cc1 [Compound 54] ?
*A* 107.5 to 108.5 °C

*Q* Would you kindly share the measured melting point for CCCN1CCC(C(=O)Nc2ccc(CN(C)C3CCOCC3)cc2)=Cc2cc(-c3ccc(OCCOCC)cc3)ccc21 [Compound 25] ?
*A* 144 to 147 °C

*Q* Item under review: CCOCCOc1ccc(-c2ccc3c(c2)C=C(C(=O)Nc2ccc(CN(C)C4CCOCC4)cc2)CCN3CC)cc1 [Compound 16] . Reported melting point?
*A* 114.5 to 116.5 °C

*Q* // lookup melting point for CCCCOCCOc1ccc(-c2ccc3c(c2)C=C(C(=O)Nc2ccc(CN(C)C4CCOCC4)cc2)CCN3Cc2ccccc2OC)cc1 [Compound 52]
*A* 111.5 to 112.5 °C
